assay: Acute Toxicity in Mice (Procedure/Test 001); type: in vivo; conditions: mouse, in vivo, sc, lethality at 24 hours, water-soluble salt
Satisfied if LD50 at 24 h is below 400 mg/kg. Not satisfied if not; exact matches included in Not satisfied.

COMPOUND	CLASSIFICATION
CN1CC[C@@H](c2ccc(F)cc2)[C@H](COc2ccc3c(c2)OCO3)C1 (single isomer, unassigned) [FG 7043, reference compound]	Satisfied
COc1ccc(OC[C@@H]2CN(C)CC[C@H]2c2ccc(F)cc2)cc1 (relative stereo) [FG 98-I]	Not satisfied
COc1ccc(OC[C@@H]2CN(C)CC[C@H]2c2ccccc2)cc1 (relative stereo) [FG 4932, reference compound]	Satisfied
CC(=O)O.COc1ccc(OC[C@@H]2CNCC[C@H]2c2ccc(F)cc2)cc1 (single isomer, unassigned) [FG 8035]	Not satisfied
COc1ccc(OC[C@@H]2CN(C)CC[C@H]2c2ccccc2)cc1 (single isomer, unassigned) [FG 4963, reference compound]	Satisfied
COc1ccc(OC[C@@H]2CNCC[C@H]2c2ccc(F)cc2)cc1 (single isomer, unassigned) [FG 7080]	Not satisfied
Fc1ccc([C@@H]2CCNC[C@H]2COc2ccc3c(c2)OCO3)cc1 (single isomer, unassigned) [FG 7051]	Satisfied

----------
test system: mice; assay: in vivo; settings: LD50/ED50, mice s.c.
TI (Therapeutic Index), 001/173 strictly under 50 means condition met; at 50 or over means condition not met.

COMPOUND	CLASSIFICATION
CC(=O)O.COc1ccc(OC[C@@H]2CNCC[C@H]2c2ccc(F)cc2)cc1 (single isomer, unassigned) [FG 8035]	condition met
COc1ccc(OC[C@@H]2CN(C)CC[C@H]2c2ccc(F)cc2)cc1.Cl (single isomer, unassigned) [FG 8032]	condition met
COc1ccc(OC[C@@H]2CNCC[C@H]2c2ccc(F)cc2)cc1 (single isomer, unassigned) [FG 7080]	condition not met
COc1ccc(OC[C@@H]2CN(C)CC[C@H]2c2ccccc2)cc1 (single isomer, unassigned) [FG 4963, reference compound]	condition not met
COc1ccc(OC[C@@H]2CN(C)CC[C@H]2c2ccccc2)cc1 (single isomer, unassigned) [FG 4962, reference compound]	condition not met
COc1ccc(OC[C@@H]2CN(C)CC[C@H]2c2ccc(F)cc2)cc1 (single isomer, unassigned) [FG 8033]	condition not met

----------
Listing of recorded selectivity ratio by entry.
experiment: in vivo; conditions: mouse, in vivo, sc, TI (Therapeutic Index), 001/173, LD50/ED50, mice s.c.

MOLECULE	selectivity ratio
COc1ccc(OC[C@@H]2CNCC[C@H]2c2ccccc2)cc1 (single isomer, unassigned) [FG 4996, reference compound]	14
CN1CC[C@@H](c2ccc(F)cc2)[C@H](COc2ccc3c(c2)OCO3)C1 (single isomer, unassigned) [FG 7043, reference compound]	63
COc1ccc(OC[C@@H]2CN(C)CC[C@H]2c2ccc(F)cc2)cc1 (relative stereo)	461
COc1ccc(OC[C@@H]2CN(C)CC[C@H]2c2ccccc2)cc1 (relative stereo) [FG 4932, reference compound]	13

----------
test system: mice; test: in vivo; conditions: percent by which FG 7080 is better than the listed compound
ASSAY_ENDPOINT: FG 7080 is better by: T.I. % (%)

COMPOUND	ASSAY_ENDPOINT	UNIT_TEXT	QUANTITATIVE_READOUT
COc1ccc(OC[C@@H]2CN(C)CC[C@H]2c2ccc(F)cc2)cc1 (relative stereo)	FG 7080 is better by: T.I. %	%	217
COc1ccc(OC[C@@H]2CN(C)CC[C@H]2c2ccccc2)cc1 (single isomer, unassigned) [FG 4963, reference compound]	FG 7080 is better by: T.I. %	%	746
COc1ccc(OC[C@@H]2CN(C)CC[C@H]2c2ccccc2)cc1 (single isomer, unassigned) [FG 4962, reference compound]	FG 7080 is better by: T.I. %	%	1887
COc1ccc(OC[C@@H]2CN(C)CC[C@H]2c2ccc(F)cc2)cc1.Cl (single isomer, unassigned)	FG 7080 is better by: T.I. %	%	5882

----------
Reported FG 7080 is better by: T.I. Factor values for the following compounds.
test system: mice; assay: in vivo; conditions: factor by which FG 7080 is better than the listed compound
ASSAY_ENDPOINT: FG 7080 is better by: T.I. Factor

COMPOUND	ASSAY_ENDPOINT	QUANTITATIVE_READOUT
COc1ccc(OC[C@@H]2CN(C)CC[C@H]2c2ccccc2)cc1 (single isomer, unassigned) [FG 4962, reference compound]	FG 7080 is better by: T.I. Factor	19.87
COc1ccc(OC[C@@H]2CN(C)CC[C@H]2c2ccccc2)cc1 (single isomer, unassigned) [FG 4963, reference compound]	FG 7080 is better by: T.I. Factor	7.46
COc1ccc(OC[C@@H]2CN(C)CC[C@H]2c2ccc(F)cc2)cc1.Cl (single isomer, unassigned)	FG 7080 is better by: T.I. Factor	58.82
COc1ccc(OC[C@@H]2CN(C)CC[C@H]2c2ccc(F)cc2)cc1 (relative stereo)	FG 7080 is better by: T.I. Factor	2.17
